test system: UO-31 renal; experiment: NCI tumour cell line growth inhibition, 48 h
ENDPOINT_LABEL: TGI

INSERT INTO assay_data (compound, experimental_target, reading) VALUES
  ('CC(C)C(=O)OCC1OC(n2c(Br)nc3c(=O)[nH]c(N)nc32)C(OC(=O)C(C)C)C1OC(=O)C(C)C (configuration not stated)', 'UO-31 renal', '> 100 µM'),
  ('C[C@H](CCC(=O)O)[C@H]1CC[C@H]2[C@@H]3CC[C@@H]4C[C@H](O)CC[C@]4(C)[C@H]3C[C@H](O)[C@]12C', 'UO-31 renal', '> 100 µM'),
  ('CCCCNC(=S)Nc1nc(C(=O)NNC(=S)Nc2ccccc2)cs1', 'UO-31 renal', '> 100 µM'),
  ('COC(=O)c1ccccc1/C=C1\Cc2ccc(C)c(C)c2C1=O', 'UO-31 renal', '> 100 µM'),
  ('O=C(c1ccccc1Br)C(F)(F)F', 'UO-31 renal', '> 100 µM');

Batch lookup, TGI per entry.
1. CC1c2c(Cl)nc3ccccc3c2Oc2c1c(Cl)nc1ccccc21
2. CCOC(=O)Nc1ccc(C)c(NC(=O)OCC)c1
3. Cc1cc(S(=O)(=O)Nc2n[nH]c(N)n2)c(SCC(=O)O)cc1Cl
4. Cc1cc(Cl)ccc1NC(=O)C(=O)Cc1nc2ccccc2o1
5. O=C(Cn1c[n+](CC(=O)c2ccc(-c3ccccc3)cc2)c2ccccc21)Nc1cccc2cccnc12
6. COc1ccc2[nH]cc(C3(c4c[nH]c5ccc(OC)cc45)C(=O)Nc4ccc(F)cc43)c2c1
7. CCOC(=O)c1nnc2c(C(=O)OCC)c3ccccc3n2c1N
8. O=[N+]([O-])c1ccc2c(c1)C1=C(CO2)Cc2ccccc2O1

Reply:
["> 100 µM", "> 100 µM", "> 10 µM", "> 100 µM", "33.3 µM", "11.9 µM", "> 100 µM", "28.1 µM"]

# batch size: 8; output TGI per entry
1. [Cl][Hg][c]1cc[c]([Hg][Cl])o1
2. CN(C)CCCN1CCC2(CCC(C(C)(C)C)CC2)CC1
3. CCOC(=O)C12OC(CCC1=O)C(C(=O)OC)=C2C(=O)OC (configuration not stated)
4. COC(=O)C(Cc1c[nH]c2ccccc12)NP(=O)(O)OCC1OC(n2cc(I)c(=O)[nH]c2=O)CC1O (configuration not stated)
5. COc1ccc(CC2NCCc3c2[nH]c2ccccc32)cc1 (configuration not stated)
6. COc1ccc(/C=C2\N=C(SC)N(CN3CCOCC3)C2=O)cc1
7. O=C1/C(=C/c2ccc(Cl)cc2)CCC1CCN1CCOCC1 (configuration not stated)
8. CCC(C)OC(=O)/C(Br)=C1/OC(=O)c2ccccc2-c2ccccc21 (configuration not stated)

Reply:
3.96 µM
3.4 µM
> 10 µM
> 100 µM
> 100 µM
> 100 µM
> 100 µM
73 µM

Could I get TGI for every one of these entries?
1. C=C(C)[C@@H]1CC[C@]2(C)[C@H](CC=C3[C@@H]4CC(C)(C)CC[C@]4(C(N)=O)CC[C@]32C)[C@@]1(C)CCC#N
2. O=C(Nc1ccncc1)C(=O)c1cn(S(=O)(=O)c2ccc(F)cc2)c2ccccc12

Reply:
["7.52 µM", "48.3 µM"]
